Cited source for all entries: PubChem BioAssay (NCI)

# key: entry, value: growth
- Test system: NCI-H322M lung
- assay: NCI-60 one-dose screen, 48 h (100 = growth as untreated, 0 = no growth, -100 = all killed)
- setup conditions: 10 µM unless noted
About 83,000 compounds went through this panel and 20% of them were active in at least one assay; those are over-represented in the sample as a whole. Calls of active or inactive are those of the source. How the source made its calls: active means growth percent below 10; inactive means the rest.

molecule: CC1CCN(C(=O)OCc2nc3nc(Cl)nc(N4CCOCC4)c3[nH]2)CC1
target or system: NCI-H322M lung
growth: 68% (inactive)

molecule: COc1cccc(NC(=O)c2cccc(-c3cc(=O)c4c(OC)c(OC)c(OC)cc4o3)c2)c1
target or system: NCI-H322M lung
growth: 80.1% (inactive)

molecule: CCCCCCCCCCCCCCCC(=O)OC[C@@]1(O)C[C@@]23CC[C@@H]4C(C)(C)[C@H](O)CC[C@@]4(C)[C@@H]2CC[C@H]1C3
target or system: NCI-H322M lung
growth: 114% (inactive)

molecule: COc1ccc(-c2c[nH]c(C(=O)O)c2-c2cc(OC)c3c(c2OC)OCO3)cc1
target or system: NCI-H322M lung
growth: 95% (inactive)

molecule: COc1cc(-c2nc3sccn3c2-c2ccnc(NCCNS(=O)(=O)c3ccc(F)cc3)n2)ccc1F
target or system: NCI-H322M lung
growth: 29.7% (inactive)

molecule: COc1cc(C2CC(c3cccc(Nc4ccncc4)c3)=NN2c2cc(Cl)cc(Cl)c2)cc(OC)c1OC (centres undefined)
target or system: NCI-H322M lung
growth: 64.2% (inactive)

molecule: Clc1cc(Cl)cc(N2N=C(c3cccc(Nc4ccncc4)c3)CC2c2ccc3c(c2)OCO3)c1 (centres undefined)
target or system: NCI-H322M lung
growth: 68.3% (inactive)

molecule: CC(C)(C#N)N1CCN(c2ccccc2Cl)CC1
target or system: NCI-H322M lung
growth: 94.8% (inactive)

molecule: COc1ccccc1/C=N/NC1=NC2C(N1)N(C)C(=O)N2C (centres undefined)
target or system: NCI-H322M lung
growth: 95.5% (inactive)

====

- System: MDA-MB-231 breast
- assay: NCI-60 one-dose screen, 48 h (100 = growth as untreated, 0 = no growth, -100 = all killed)
- setup conditions: 10 µM unless noted
This is part of a sample that, as a whole, favours compounds with a hit. Of some 83,000 tested, about 20% had one in any assay.

molecule: CS(=O)(=O)Nc1cc(-c2ccc3ncnc(Nc4ccc5[nH]ncc5c4)c3c2)cnc1Cl
growth / %: 79.5
//
molecule: COc1cc(C2CC(c3cccc(Nc4ccncc4)c3)=NN2c2cc(Cl)cc(Cl)c2)cc(OC)c1OC (stereo not drawn)
growth / %: 19.8
//
molecule: COc1cc2nnn3c4ncccc4c(N=O)c3c2cc1OC
growth / %: 78.6

====

Reported growth values for the following molecules.
- Tested on: HS 578T breast
- assay: NCI-60 one-dose screen, 48 h (100 = growth as untreated, 0 = no growth, -100 = all killed)
- setup conditions: 10 µM unless noted
This is part of a sample that, as a whole, favours compounds with a hit. Of some 83,000 tested, about 20% had one in any assay.

molecule: CCSc1ccc2c(c1)N(CCCN1CCN(C)CC1)c1ccccc1S2
target or system: HS 578T breast
scale unit: %
growth: 61.4

molecule: O=C(Nc1cccc(Cl)c1)c1cc(Cl)ccc1O
target or system: HS 578T breast
scale unit: %
growth: -7.76

molecule: Cc1ccc(C(=O)Nc2ccccc2C(=O)N/N=C(\c2ccccc2)c2ccccn2)cc1
target or system: HS 578T breast
scale unit: %
growth: 68.3

molecule: CC1=CC2(C)/C=C(C)/C=C\CC(O)/C=C3/C=CC(=C4C(=O)OC2(CC1C)C4=O)OC3 (centres undefined)
target or system: HS 578T breast
scale unit: %
growth: -34

====

growth values by entry
- System: NCI-H460 lung
- assay: NCI-60 one-dose screen, 48 h (100 = growth as untreated, 0 = no growth, -100 = all killed)
- setup conditions: 10 µM unless noted
Compounds without any hit were thinned out: in the full panel of roughly 83,000, 20% have a hit. Active and inactive are the calls of the source. The calls were made as follows: active = growth percent below 10; inactive = the rest.
measure: growth

molecule: CC(=O)c1c[nH]c2ccc(-c3ccnc(Nc4ccc(NC(=O)C5CCCC5)c(CN5CCOCC5)c4)n3)cc12
target or system: NCI-H460 lung
obs value: -60.6% (active)

molecule: CC(C)C1C2=C(NCCN1C(=O)Cc1ccccc1)C(C)(C)N(Cc1ccccc1)C2=O (stereo unspecified)
target or system: NCI-H460 lung
obs value: 104% (inactive)

molecule: CC(=O)OCCCCCNc1ccccc1
target or system: NCI-H460 lung
obs value: 118% (inactive)

molecule: C#Cc1cccc(NC(=O)Nc2cccc(N=C=S)c2)c1
target or system: NCI-H460 lung
obs value: 112% [8.25 µM] (inactive)

molecule: ClCC1(Cn2cnc3c(Cl)nc(Cl)nc32)COC1
target or system: NCI-H460 lung
obs value: 86.5% (inactive)

molecule: CCCCCCOc1ccc(/C=N/Nc2cc(C)nc3ccc(Br)cc23)cc1
target or system: NCI-H460 lung
obs value: -72% (active)

molecule: CCCC/C(=N\N=C(N)N)c1ccc(F)cc1
target or system: NCI-H460 lung
obs value: 16.2% (inactive)

molecule: O=C1c2cccnc2C(=O)c2nc3cc(N4CCN(C5CC5)CC4)ccc3nc21
target or system: NCI-H460 lung
obs value: -54.1% (active)

molecule: COc1cc(-c2cc(=O)oc3cc(O)ccc23)c(OC)c2c1OCO2
target or system: NCI-H460 lung
obs value: 88.9% (inactive)

molecule: CSc1nc(O)c(-c2ccccc2)c(=O)[nH]1
target or system: NCI-H460 lung
obs value: 104% (inactive)

molecule: C=C(C)[C@@H]1CC[C@]2(C=O)CC[C@]3(C)[C@H](CC[C@@H]4[C@@]5(C)CCCNC(C)(C)[C@@H]5CC[C@]43C)[C@@H]12
target or system: NCI-H460 lung
obs value: 16.7% (inactive)

molecule: COC(=O)N[C@H]1CCc2cc(OC)c(OC)c(OC)c2-c2ccc(SC)c(=O)cc21
target or system: NCI-H460 lung
obs value: 2.04% (active)

molecule: O=S(=O)(NCCNc1nccc(-c2c(-c3cccc(F)c3)nc3occn23)n1)c1cccc2ccccc12
target or system: NCI-H460 lung
obs value: 58.2% (inactive)

molecule: COc1ccc(CNCCN2C(=O)c3ccc4c5c(ccc(c35)C2=O)C(=O)N(CCNCc2ccc(OC)cc2)C4=O)cc1
target or system: NCI-H460 lung
obs value: -78.8% (active)

molecule: CCCCCOc1ccc(/C=N/Nc2cc(C)nc3ccc(Br)cc23)cc1
target or system: NCI-H460 lung
obs value: -57.9% (active)

molecule: CC(=O)[C@@H]1CC[C@]2(C(=O)n3ccnc3)CC[C@]3(C)[C@H](CC[C@@H]4[C@@]5(C)Cc6c([nH]c7ccccc67)C(C)(C)[C@@H]5CC[C@]43C)[C@@H]12
target or system: NCI-H460 lung
obs value: 80.9% (inactive)

molecule: O=C1NC(=O)C(=Cc2cn(Cc3ccccn3)c3ccccc23)C(=O)N1
target or system: NCI-H460 lung
obs value: 11.9% (inactive)

molecule: COc1cc(/C=C/C(=O)c2ccc(Nc3ncnc4ccccc34)cc2)cc(OC)c1
target or system: NCI-H460 lung
obs value: 81.4% (inactive)

molecule: COc1cccc(C(Cc2ccccc2)Nc2ccccc2)c1OC (stereo unspecified)
target or system: NCI-H460 lung
obs value: 101% (inactive)

molecule: N#Cc1ccc(-c2ccc3c(c2)NC(=O)/C3=C\c2ccc[nH]2)cc1
target or system: NCI-H460 lung
obs value: 76.2% (inactive)

molecule: CC1=CC[C@@H]2CC[C@]3(C)[C@H](CC[C@@H]4[C@@]5(C)CCCNC(C)(C)[C@@H]5CC[C@]43C)[C@H]2[C@@H]1C
target or system: NCI-H460 lung
obs value: -70.4% (active)

molecule: CCOC(=O)c1c(C)nc2c(c1N)C(=O)C(=O)N2Cc1ccc(C(F)(F)F)cc1
target or system: NCI-H460 lung
obs value: 93.7% (inactive)

molecule: CCCCOc1ccc(/C=N/Nc2cc(C)nc3ccc(Cl)cc23)cc1
target or system: NCI-H460 lung
obs value: -62.8% (active)

molecule: CC(O)(CO)c1ccccc1 (stereo unspecified)
target or system: NCI-H460 lung
obs value: 105% (inactive)

molecule: CC(=O)OCC(=O)C1(O)C(C)CC2C3C=C(C)C4=Cc5c(cnn5-c5ccccc5)CC4(C)C3C(O)CC21C (stereo unspecified)
target or system: NCI-H460 lung
obs value: 6.3% (active)

molecule: N#C/C(=C\c1ccc(Br)cc1)n1nnc2cccc(F)c21
target or system: NCI-H460 lung
obs value: -47% (active)
